system: CYP3A; assay: CYP inhibition screening, CYP3A-Testosterone; format: in vitro ADME; conditions: 3 μM

{"compound": "Nc1ccc(N2CCOCC2)c2nonc12 [Compound 11]", "CYP3A-Testosterone inhibition (%)": 4.1}
{"compound": "Cn1c(=O)[nH]c(=O)c2c1nc(S)n2CC(O)COc1ccc(Cl)cc1 (centres unmarked) [Compound 38]", "CYP3A-Testosterone inhibition (%)": "−6.0"}
{"compound": "CCN(CC)c1ccc(CN2CCc3nc(C)[nH]c(=O)c3C2)c(OC)c1 [Compound 64]", "CYP3A-Testosterone inhibition (%)": 1.5}
{"compound": "Cc1cccc(NCc2ccc(O)c3ncccc23)c1C [Compound 12]", "CYP3A-Testosterone inhibition (%)": 14.2}
{"compound": "COc1ccc(N2CCN(C(c3ccc(N(C)C)cc3)c3nnnn3C(C)(C)C)CC2)cc1 (centres unmarked) [Compound 31]", "CYP3A-Testosterone inhibition (%)": 2.5}

###

biological target: CYP2C9 (Homo sapiens); experiment: CYP inhibition screening, CYP2C9; type: in vitro ADME; conditions: 3 μM
Sequence (P11712 whole entry): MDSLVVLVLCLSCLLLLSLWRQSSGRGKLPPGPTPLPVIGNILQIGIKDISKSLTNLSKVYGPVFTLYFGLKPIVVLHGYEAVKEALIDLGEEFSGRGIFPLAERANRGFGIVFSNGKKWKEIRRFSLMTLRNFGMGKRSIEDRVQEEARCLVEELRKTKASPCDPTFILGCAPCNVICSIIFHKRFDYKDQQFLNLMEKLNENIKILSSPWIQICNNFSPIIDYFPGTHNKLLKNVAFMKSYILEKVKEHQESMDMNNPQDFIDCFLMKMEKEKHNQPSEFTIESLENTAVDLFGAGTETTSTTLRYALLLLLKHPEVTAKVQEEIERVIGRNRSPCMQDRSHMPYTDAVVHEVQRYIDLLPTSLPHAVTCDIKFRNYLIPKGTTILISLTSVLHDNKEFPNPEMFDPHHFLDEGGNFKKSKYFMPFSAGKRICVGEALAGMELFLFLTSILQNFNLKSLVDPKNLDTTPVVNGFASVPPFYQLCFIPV
Reported CYP2C9 inhibition values for a set of compounds

{"compound": "Cc1cccc(NCc2ccc(O)c3ncccc23)c1C [Compound 12]", "CYP2C9 inhibition / %": 4.3}
{"compound": "Nc1ccc(N2CCOCC2)c2nonc12 [Compound 11]", "CYP2C9 inhibition / %": 4.3}
{"compound": "COc1ccc(N2CCN(C(c3ccc(N(C)C)cc3)c3nnnn3C(C)(C)C)CC2)cc1 (centres unmarked) [Compound 31]", "CYP2C9 inhibition / %": 47.8}
{"compound": "CCN(CC)c1ccc(CN2CCc3nc(C)[nH]c(=O)c3C2)c(OC)c1 [Compound 64]", "CYP2C9 inhibition / %": 4.6}
{"compound": "Cn1c(=O)[nH]c(=O)c2c1nc(S)n2CC(O)COc1ccc(Cl)cc1 (centres unmarked) [Compound 38]", "CYP2C9 inhibition / %": 15.6}

###

assay: Human liver microsomal stability screen; details: Human liver microsomes, 30 min
endpoint name: Mean Remaining Parent (with NADPH) (%)

{"compound": "Cc1cccc(NCc2ccc(O)c3ncccc23)c1C", "unit info": "%", "recorded value": 1}
{"compound": "Nc1ccc(N2CCOCC2)c2nonc12", "unit info": "%", "recorded value": 76}
{"compound": "COc1ccc(N2CCN(C(c3ccc(N(C)C)cc3)c3nnnn3C(C)(C)C)CC2)cc1 (stereo not shown)", "unit info": "%", "recorded value": 12}
{"compound": "Cn1c(=O)[nH]c(=O)c2c1nc(S)n2CC(O)COc1ccc(Cl)cc1 (stereo not shown)", "unit info": "%", "recorded value": 88}

###

biological target: CYP2D6 (Homo sapiens, UniProt P10635); assay: CYP inhibition screening, CYP2D6; type: in vitro ADME; settings: 10 μM
Sequence (P10635 whole entry): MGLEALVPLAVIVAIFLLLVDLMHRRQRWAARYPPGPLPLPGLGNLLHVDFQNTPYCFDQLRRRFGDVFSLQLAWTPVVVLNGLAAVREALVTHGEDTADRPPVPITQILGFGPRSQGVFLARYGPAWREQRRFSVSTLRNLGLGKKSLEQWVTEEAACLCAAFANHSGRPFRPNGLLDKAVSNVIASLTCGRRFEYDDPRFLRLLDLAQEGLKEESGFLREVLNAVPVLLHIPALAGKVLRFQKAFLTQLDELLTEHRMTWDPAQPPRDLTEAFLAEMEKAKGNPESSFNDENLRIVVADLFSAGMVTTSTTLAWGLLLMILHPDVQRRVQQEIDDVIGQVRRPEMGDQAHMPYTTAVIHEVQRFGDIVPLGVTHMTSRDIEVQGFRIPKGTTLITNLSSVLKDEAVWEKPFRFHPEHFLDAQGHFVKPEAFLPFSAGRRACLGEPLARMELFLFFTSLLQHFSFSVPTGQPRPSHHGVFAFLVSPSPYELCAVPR

{"molecule": "Cc1cccc(NCc2ccc(O)c3ncccc23)c1C [Compound 12]", "CYP2D6 inhibition (%)": "−2.6"}
{"molecule": "CCN(CC)c1ccc(CN2CCc3nc(C)[nH]c(=O)c3C2)c(OC)c1 [Compound 64]", "CYP2D6 inhibition (%)": 58.3}
{"molecule": "Cn1c(=O)[nH]c(=O)c2c1nc(S)n2CC(O)COc1ccc(Cl)cc1 (centres unmarked) [Compound 38]", "CYP2D6 inhibition (%)": 0.9}
{"molecule": "Nc1ccc(N2CCOCC2)c2nonc12 [Compound 11]", "CYP2D6 inhibition (%)": 21.9}
{"molecule": "COc1ccc(N2CCN(C(c3ccc(N(C)C)cc3)c3nnnn3C(C)(C)C)CC2)cc1 (centres unmarked) [Compound 31]", "CYP2D6 inhibition (%)": 1.4}
